Provide the reported pIC50 of each item.
Measurement target: ATR/ATRIP complex (Homo sapiens (Human))
Sequence (Q13535 whole entry): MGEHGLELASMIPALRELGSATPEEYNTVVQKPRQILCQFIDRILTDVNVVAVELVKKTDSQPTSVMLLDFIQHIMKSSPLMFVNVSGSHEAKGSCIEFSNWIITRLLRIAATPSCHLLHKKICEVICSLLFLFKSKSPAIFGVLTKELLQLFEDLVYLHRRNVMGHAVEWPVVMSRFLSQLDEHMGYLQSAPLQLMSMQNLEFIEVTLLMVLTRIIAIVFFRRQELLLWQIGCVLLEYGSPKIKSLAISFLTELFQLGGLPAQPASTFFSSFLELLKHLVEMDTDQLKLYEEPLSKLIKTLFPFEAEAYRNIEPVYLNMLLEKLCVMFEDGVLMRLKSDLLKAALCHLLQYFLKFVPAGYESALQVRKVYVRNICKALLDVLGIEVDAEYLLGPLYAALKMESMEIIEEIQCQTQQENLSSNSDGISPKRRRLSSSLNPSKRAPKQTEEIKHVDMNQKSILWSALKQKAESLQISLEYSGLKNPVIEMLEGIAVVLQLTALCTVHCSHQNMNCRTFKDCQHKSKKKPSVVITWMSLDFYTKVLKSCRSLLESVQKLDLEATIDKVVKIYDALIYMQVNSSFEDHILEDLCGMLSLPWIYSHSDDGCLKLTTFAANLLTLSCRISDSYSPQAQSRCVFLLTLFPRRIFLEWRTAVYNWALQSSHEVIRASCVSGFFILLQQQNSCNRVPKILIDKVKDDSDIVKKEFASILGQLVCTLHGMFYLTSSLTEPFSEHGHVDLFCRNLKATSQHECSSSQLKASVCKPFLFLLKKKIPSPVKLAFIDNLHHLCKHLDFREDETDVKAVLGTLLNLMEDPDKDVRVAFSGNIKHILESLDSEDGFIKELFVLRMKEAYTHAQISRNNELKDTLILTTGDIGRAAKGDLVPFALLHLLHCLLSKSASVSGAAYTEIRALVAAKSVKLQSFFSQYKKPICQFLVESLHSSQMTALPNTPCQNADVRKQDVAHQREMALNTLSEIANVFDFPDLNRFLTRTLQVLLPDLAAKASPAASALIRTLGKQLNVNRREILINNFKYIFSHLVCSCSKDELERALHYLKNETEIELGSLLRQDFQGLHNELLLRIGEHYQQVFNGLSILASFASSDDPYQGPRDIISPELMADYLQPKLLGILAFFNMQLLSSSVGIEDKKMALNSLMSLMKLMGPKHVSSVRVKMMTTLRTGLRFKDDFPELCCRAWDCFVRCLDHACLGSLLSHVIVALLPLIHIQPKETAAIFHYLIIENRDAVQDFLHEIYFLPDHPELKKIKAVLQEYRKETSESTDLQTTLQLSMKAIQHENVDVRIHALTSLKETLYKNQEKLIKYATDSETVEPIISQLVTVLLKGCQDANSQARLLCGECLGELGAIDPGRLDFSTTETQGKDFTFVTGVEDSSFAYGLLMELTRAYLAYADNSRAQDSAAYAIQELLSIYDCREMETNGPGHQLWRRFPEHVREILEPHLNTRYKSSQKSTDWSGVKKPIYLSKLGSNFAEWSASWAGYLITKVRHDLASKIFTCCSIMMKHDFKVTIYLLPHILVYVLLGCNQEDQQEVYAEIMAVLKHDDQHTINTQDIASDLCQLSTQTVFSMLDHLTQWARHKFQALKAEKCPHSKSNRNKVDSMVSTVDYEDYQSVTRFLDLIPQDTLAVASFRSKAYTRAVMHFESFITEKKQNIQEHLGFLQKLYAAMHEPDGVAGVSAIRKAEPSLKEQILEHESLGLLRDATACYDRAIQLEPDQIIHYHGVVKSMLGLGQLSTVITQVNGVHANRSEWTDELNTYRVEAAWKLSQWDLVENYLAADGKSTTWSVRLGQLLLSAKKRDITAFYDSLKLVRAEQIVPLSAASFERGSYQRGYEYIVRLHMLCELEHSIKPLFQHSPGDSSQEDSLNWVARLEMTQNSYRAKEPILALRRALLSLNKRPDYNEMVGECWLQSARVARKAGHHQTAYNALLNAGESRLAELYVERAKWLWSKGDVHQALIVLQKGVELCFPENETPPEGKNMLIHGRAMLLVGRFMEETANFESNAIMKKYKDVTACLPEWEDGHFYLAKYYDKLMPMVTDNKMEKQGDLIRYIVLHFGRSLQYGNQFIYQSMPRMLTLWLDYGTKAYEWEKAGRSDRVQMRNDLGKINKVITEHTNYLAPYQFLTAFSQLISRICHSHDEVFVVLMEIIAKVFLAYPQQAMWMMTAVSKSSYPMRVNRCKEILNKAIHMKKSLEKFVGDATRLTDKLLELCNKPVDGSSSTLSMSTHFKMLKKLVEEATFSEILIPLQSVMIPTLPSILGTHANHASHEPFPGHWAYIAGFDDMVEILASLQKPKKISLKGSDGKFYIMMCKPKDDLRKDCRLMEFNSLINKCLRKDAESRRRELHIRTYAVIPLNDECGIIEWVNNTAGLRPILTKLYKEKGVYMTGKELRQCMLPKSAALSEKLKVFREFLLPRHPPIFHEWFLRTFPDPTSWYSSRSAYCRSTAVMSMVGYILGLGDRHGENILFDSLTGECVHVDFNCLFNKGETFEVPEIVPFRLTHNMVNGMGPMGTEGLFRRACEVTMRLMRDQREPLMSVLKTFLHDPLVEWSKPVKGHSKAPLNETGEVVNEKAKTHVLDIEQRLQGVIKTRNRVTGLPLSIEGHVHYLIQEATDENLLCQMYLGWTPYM
Sequence (Q8WXE1 whole entry partner): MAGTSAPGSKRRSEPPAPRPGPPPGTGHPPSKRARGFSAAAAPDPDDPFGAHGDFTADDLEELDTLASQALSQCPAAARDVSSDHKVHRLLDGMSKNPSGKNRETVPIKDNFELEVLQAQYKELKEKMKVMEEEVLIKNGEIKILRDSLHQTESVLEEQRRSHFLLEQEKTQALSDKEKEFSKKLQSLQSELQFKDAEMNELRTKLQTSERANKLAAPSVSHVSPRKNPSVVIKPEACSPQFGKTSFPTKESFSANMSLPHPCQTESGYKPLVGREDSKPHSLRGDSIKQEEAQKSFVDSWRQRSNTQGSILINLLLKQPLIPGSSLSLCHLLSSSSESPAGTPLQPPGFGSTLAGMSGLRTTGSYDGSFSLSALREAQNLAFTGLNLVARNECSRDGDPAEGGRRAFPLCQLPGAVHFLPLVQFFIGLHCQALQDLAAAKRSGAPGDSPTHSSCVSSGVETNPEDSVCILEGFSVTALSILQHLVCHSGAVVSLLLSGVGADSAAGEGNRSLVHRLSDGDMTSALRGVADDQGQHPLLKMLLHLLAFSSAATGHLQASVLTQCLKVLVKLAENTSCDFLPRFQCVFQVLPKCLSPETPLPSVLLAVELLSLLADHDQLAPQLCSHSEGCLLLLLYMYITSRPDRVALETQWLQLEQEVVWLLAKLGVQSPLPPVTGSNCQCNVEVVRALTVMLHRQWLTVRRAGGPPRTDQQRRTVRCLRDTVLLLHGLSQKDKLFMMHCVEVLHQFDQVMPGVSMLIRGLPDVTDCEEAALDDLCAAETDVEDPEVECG
Test summary: ATR/ATRIP enzymatic assay (Caliper-based)
Assay type: biochemical
Measurement conditions: FAM-labeled RAD17 peptide, ATP; read-out: ATR/ATRIP Enzyme IC50
One number for each entry, as −log10 of the molar value.

Worked examples follow.
In [3]: df
Out[3]:
                                   compound  measurement
0  CCC1(O)CCN(c2ncnc3c2CN(c2cc(Cl)nc4[nH]ccc24)[C@H](C)C3)CC1         6.55
1  C[C@@H]1Cc2ncnc(N3CC(S(C)(=O)=O)C3)c2CN1c1cc(Cl)nc2[nH]ccc12         6.65
2  C[C@@H]1Cc2ncnc(N3CCC4(CC3)NC(=O)NC4=O)c2CN1c1cc(Cl)nc2[nH]ccc12         6.29
3  C[C@@H]1Cc2ncnc(C3CCCN(S(C)(=O)=O)C3)c2CN1c1ccnc2[nH]ccc12 (single isomer, unassigned) [Example 50a]         5.92
4  C[C@@H]1Cc2ncnc(N3CCC(S(C)(=O)=O)CC3)c2CN1c1ccnc2[nH]ccc12 [Example 88]         6.21
5  C[C@@H]1Cc2ncnc(C3CCN(S(C)(=O)=O)CC3)c2CN1c1cc(OC2CCC2)nc2[nH]ccc12         7.12

Batch of 6 compounds: report pIC50 for each.
1. C[C@@H]1Cc2ncnc(C3=CCC(NS(C)(=O)=O)CC3)c2CN1c1cc(Cl)nc2[nH]ccc12 (some centres unmarked)
2. C[C@@H]1Cc2ncnc(C3CCN(S(=O)(=O)C4CC4)CC3)c2CN1c1ccnc2[nH]ccc12
3. C[C@@H]1Cc2ncnc(N3CCCC(C#N)C3)c2CN1c1ccnc2[nH]ccc12 (some centres unmarked)
4. CCOc1cc(N2Cc3c(ncnc3C3CCN(S(C)(=O)=O)CC3)C[C@@H]2CF)c2cc[nH]c2n1 [Example 55a]
5. CC1Cc2ncnc(C3CCN(S(C)(=O)=O)CC3)c2CN1c1ccnc2[nH]ccc12 (centres unmarked) [Example 4, bis(trifluoroacetate)]
6. C[C@@H]1Cc2ncnc(N3CCC(C)(O)CC3)c2CN1c1cc(Cl)nc2[nH]ccc12

1. 6.95
2. 5.96
3. 6.44
4. 4.60
5. 6.08
6. 6.23

Batch of 6 compounds: report pIC50 for each.
1. C[C@@H]1Cc2ncnc(N3CCC(O)CC3)c2CN1c1cc(Cl)nc2[nH]ccc12
2. COC(=O)N1CCCC(c2ncnc3c2CN(c2cc(Cl)nc4[nH]ccc24)[C@H](C)C3)C1 (some centres unmarked) [Example 10, bis(trifluoroacetate)]
3. C[C@@H]1Cc2ncnc(N3CCCC(S(C)(=O)=O)C3)c2CN1c1cc(Cl)nc2[nH]ccc12 (some centres unmarked)
4. C[C@@H]1Cc2ncnc(C3C[C@H]4CC[C@@H](C3)N4S(C)(=O)=O)c2CN1c1cc(Cl)nc2[nH]ccc12 (single isomer, unassigned) [Example 11a]
5. C[C@@H]1Cc2ncnc([C@H]3CCN(S(C)(=O)=O)C(C)(C)C3)c2CN1c1ccnc2[nH]ccc12 (single isomer, unassigned) [Example 48b]
6. CNC(=O)[C@H]1CCCN(c2ncnc3c2CN(c2cc(Cl)nc4[nH]ccc24)[C@H](C)C3)C1

6.29
6.39
6.80
6.26
6.36
6.85

Batch of 6 compounds: report pIC50 for each.
1. C[C@@H]1Cc2ncnc([C@@H]3CCN(S(C)(=O)=O)C3)c2CN1c1ccnc2[nH]ccc12 [Example 57a]
2. C[C@@H]1Cc2ncnc(C3CCN(S(C)(=O)=O)CC3)c2CN1c1cc(OC2CC2)nc2[nH]ccc12
3. C[C@@H]1Cc2ncnc(N3CCC(S(C)(=N)=O)CC3)c2CN1c1cc(Cl)nc2[nH]ccc12 (some centres unmarked)
4. CNC(=O)C1CN(c2ncnc3c2CN(c2cc(Cl)nc4[nH]ccc24)[C@H](C)C3)C1
5. C[C@@H]1Cc2ncnc(N3CCC[C@H](NS(C)(=O)=O)C3)c2CN1c1cc(Cl)nc2[nH]ccc12
6. C[C@@H]1Cc2ncnc(N3CC(C#N)C3)c2CN1c1ccnc2[nH]ccc12

1: 6.08; 2: 7.03; 3: 6.02; 4: 6.37; 5: 7.14; 6: 6.61

Batch of 5 compounds: report pIC50 for each.
1. COC(=O)[C@@H]1CCCN(c2ncnc3c2CN(c2cc(Cl)nc4[nH]ccc24)[C@H](C)C3)C1
2. C[C@@H]1Cc2ncnc(N3CC(NS(=O)(=O)C4CC4)C3)c2CN1c1ccnc2[nH]ccc12
3. COc1cc(N2Cc3c(ncnc3C3CCN(S(C)(=O)=O)CC3)C[C@H]2C)c2cc[nH]c2n1
4. C[C@@H]1Cc2ncnc(C3CCN(S(C)(=O)=O)CC3)c2CN1c1cc(OCC(F)(F)F)nc2[nH]ccc12
5. C[C@@H]1Cc2ncnc(C3CCCN(S(C)(=O)=O)C3)c2CN1c1ccnc2[nH]ccc12 (some centres unmarked) [Example 16]

1: 6.60; 2: 6.95; 3: 6.57; 4: 6.49; 5: 5.45
